Values from BigSolDB 2.1

# reported-conditions: in n-propanol, 298.15 K
measurement-kind: solubility (mole fraction)

Q: What value of solubility (mole fraction) has been recorded for this entry: C[C@H]1[C@H](C)CC[C@]2(C(=O)O[C@@H]3O[C@H](CO[C@@H]4O[C@H](CO)[C@@H](O[C@@H]5O[C@@H](C)[C@H](O)[C@@H](O)[C@H]5O)[C@H](O)[C@H]4O)[C@@H](O)[C@H](O)[C@H]3O)CC[C@]3(C)C(=CC[C@@H]4[C@@]5(C)C[C@@H](O)[C@H](O)[C@@](C)(CO)[C@@H]5CC[C@]43C)[C@H]12
Ans: 5.2e-05

###

# reported-conditions: in n-butanol, 298.15 K
measurement-kind: solubility (mole fraction)
Field format: numeric only.

Q: For C[C@H]1[C@H](C)CC[C@]2(C(=O)O[C@@H]3O[C@H](CO[C@@H]4O[C@H](CO)[C@@H](O[C@@H]5O[C@@H](C)[C@H](O)[C@@H](O)[C@H]5O)[C@H](O)[C@H]4O)[C@@H](O)[C@H](O)[C@H]3O)CC[C@]3(C)C(=CC[C@@H]4[C@@]5(C)C[C@@H](O)[C@H](O)[C@@](C)(CO)[C@@H]5CC[C@]43C)[C@H]12 , what is its reported solubility (mole fraction)?
Ans: 2.44e-05
